experiment: Lipophilicity, log P of the compound; type: physicochemical; conditions: octanol/water; read-out: logP
Let's look at some molecules and their measured logP.

smiles_string	logP
C[C@H](CCC(=O)N1CCN(C/C=C/c2ccccc2)CC1)[C@H]1CC[C@H]2[C@@H]3[C@@H](O)C[C@@H]4C[C@H](O)CC[C@]4(C)[C@H]3CC[C@]12C	5.81
C[C@H](CCC(=O)N1CCN(C/C=C/c2ccccc2)CC1)[C@H]1CC[C@H]2[C@@H]3[C@H](O)C[C@@H]4C[C@H](O)CC[C@]4(C)[C@H]3C[C@H](O)[C@]12C	4.71
C[C@H](CCC(=O)NN1CCN(C)CC1)[C@H]1CC[C@H]2[C@@H]3[C@@H](O)C[C@@H]4C[C@H](O)CC[C@]4(C)[C@H]3CC[C@]12C	3.26
